Source listed as patent US9023821B2.

system: human airway epithelial cells (HAECs); test: Agilent miRNA chips, miRNA expression at four stages of differentiation of HAECs; details: stage D0; Table VI
Recorded metric: Level of intensity of expression in log2 measured with the Agilent chips, D0 (log2)
Answer with a number only, understood to be in log2.

// solved cases for Level of intensity of expression in log2 measured with the Agilent chips, D0 follow
hsa-miR-193b: human miRNA, SEQ ID No. 14 (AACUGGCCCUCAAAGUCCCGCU; expressed or natural sequence; listed as Homo sapiens) :: 8.62
hsa-miR-378: human miRNA, SEQ ID No. 43 (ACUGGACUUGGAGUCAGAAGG; expressed or natural sequence; listed as Homo sapiens) :: 4.38
hsa-miR-429: human miRNA, SEQ ID No. 45 (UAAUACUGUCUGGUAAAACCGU; expressed or natural sequence; listed as Homo sapiens) :: 7.97
hsa-miR-29c: human miRNA, SEQ ID No. 32 (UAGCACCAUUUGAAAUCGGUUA; expressed or natural sequence; listed as Homo sapiens) :: 9.04

Could you now look at the following substance, please?
Could you tell me which Level of intensity of expression in log2 measured with the Agilent chips, D0 is on file for hsa-miR-425: human miRNA, SEQ ID No. 44 (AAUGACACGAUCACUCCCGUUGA; expressed or natural sequence; listed as Homo sapiens) ?
6.61
